Where these numbers come from: patent US20250223342A1

assayed system: T1, cynomolgus monkey serum albumin (cynomolgus monkey, UniProt A2V9Z4 25-608)
T1 construct: also called cyno albumin; CSA
test protocol: SPR (Biacore 3000), cyno albumin on chip, Fc-ABDEG fusion, ratio of R0

{"binder": "11C03 CDR2-V2 fused at the C-terminus of Fc-ABDEG (Fc fusion, not shown: a dimerising Fc or GST; small tags and cut ends) QLQVVESGGGLVQAGGSLRLSCAASERTFVAYPMGWFRQAPEKEREFVAGASWFAGATTDYADSVEGRFTISRDNAKNTAYLQMNNLKPEDTAVYYCAISHQLPGGRPGRDMDSYSYWGHGTQVTVSS", "R0 5.5/7.4": 4.35}
{"binder": "11C03 CDR2-V10 fused at the C-terminus of Fc-ABDEG (Fc fusion, not shown: a dimerising Fc or GST; small tags and cut ends) QLQVVESGGGLVQAGGSLRLSCAASERTFVAYPMGWFRQAPEKEREFVAGISWFAGATADYADSVEGRFTISRDNAKNTAYLQMNNLKPEDTAVYYCAISHQLPGGRPGRDMDSYSYWGHGTQVTVSS", "R0 5.5/7.4": 18.6}
{"binder": "11C03 parental fused at the C-terminus of Fc-ABDEG (Fc fusion, not shown: a dimerising Fc or GST; small tags and cut ends) QLQVVESGGGLVQAGGSLRLSCAASERTFVAYPMGWFRQAPEKEREFVAGISWFAGATTDYADSVEGRFTISRDNAKNTAYLQMNNLKPEDTAVYYCAISHQLPGGRPGRDMDSYSYWGHGTQVTVSS", "R0 5.5/7.4": 6.7}
{"binder": "11C03 CDR1-V2 fused at the C-terminus of Fc-ABDEG (Fc fusion, not shown: a dimerising Fc or GST; small tags and cut ends) QLQVVESGGGLVQAGGSLRLSCAASERTFVAAPMGWFRQAPEKEREFVAGISWFAGATTDYADSVEGRFTISRDNAKNTAYLQMNNLKPEDTAVYYCAISHQLPGGRPGRDMDSYSYWGHGTQVTVSS", "R0 5.5/7.4": 17.9}
